Data provenance: patent US20230293517A1

Target: UniProt P29274
Sequence (P29274 whole entry): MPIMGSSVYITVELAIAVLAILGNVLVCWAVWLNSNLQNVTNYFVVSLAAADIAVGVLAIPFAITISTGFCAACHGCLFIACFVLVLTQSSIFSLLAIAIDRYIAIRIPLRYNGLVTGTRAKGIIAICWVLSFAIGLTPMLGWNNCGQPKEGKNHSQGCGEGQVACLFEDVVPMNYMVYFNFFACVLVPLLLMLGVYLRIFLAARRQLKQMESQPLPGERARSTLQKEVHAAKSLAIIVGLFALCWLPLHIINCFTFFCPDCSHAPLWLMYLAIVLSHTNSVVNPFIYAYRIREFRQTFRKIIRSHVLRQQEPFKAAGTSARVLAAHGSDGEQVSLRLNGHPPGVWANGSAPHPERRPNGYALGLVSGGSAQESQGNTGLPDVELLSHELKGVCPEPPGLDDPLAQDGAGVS
Readout Label: Ki (nM)

[I] Cc1cc(-c2sc(NC(=O)N3CCC4(CC3)CC(=O)N(C)C4)nc2-c2cccc(C#N)c2)cc(C)n1
[II] Cc1cc(-c2sc(NC(=O)N3CCC4(CN(C)CCO4)C3)nc2-c2cccc(C#N)c2)cc(C(F)F)n1 (stereo not shown)
[III] Cc1cc(-c2sc(NC(=O)N3CCNC[C@H]3C)nc2-c2cccc(C#N)c2)cc(C)n1
Write the entries in order, lowest recorded Ki first. # the answer lists labels in the order requested
I, II, III
(I: 0.83 nM, II: 1.37 nM, III: 2.38 nM)
